# STUDY TARGET: HLA A*3001 (Homo sapiens, UniProt P04439, D140H/D185E/E176W/F33S/G80R/H175R/K168Q/R138E/R41S)
# ASSAY OVERVIEW: biochemical
# Type: binding
Where a SMILES comes first, the peptide text is derived from it.
Recorded pIC50 for the following compounds
Worth noting: pIC50 values are minus log10 of concentrations stated in mol/L.

A selection of reference data follows.
Recorded pIC50 for CSCC[C@H](NC(=O)[C@H](CO)NC(=O)[C@H](C)NC(=O)CNC(=O)[C@H](CCCCN)NC(=O)[C@H](C)NC(=O)[C@H](C)N)C(=O)N[C@H](C(=O)N[C@@H](CC(C)C)C(=O)O)[C@@H](C)O [3102.0287] (H-AAKGASMTL-OH) , please?
9.00

Moving on to CC[C@H](C)[C@H](NC(=O)[C@H](C)NC(=O)[C@@H](NC(=O)[C@@H](NC(=O)[C@H](C)NC(=O)[C@H](Cc1ccccc1)NC(=O)[C@@H](NC(=O)[C@@H](N)CCCCN)[C@@H](C)O)[C@@H](C)CC)[C@@H](C)CC)C(=O)N[C@H](C(=O)O)C(C)C [3102.0202] (H-KTFAIIAIV-OH)
7.62

And CC[C@H](C)[C@H](NC(=O)[C@H](Cc1ccc(O)cc1)NC(=O)[C@H](CCC(N)=O)NC(=O)[C@H](Cc1ccc(O)cc1)NC(=O)[C@H](CCSC)NC(=O)[C@H](C)NC(=O)[C@H](C)N)C(=O)N[C@@H](Cc1ccccc1)C(=O)N[C@@H](CC(C)C)C(=O)O [3102.1350] (H-AAMYQYIFL-OH) ?
8.12

---
Need pIC50, item CSCC[C@H](NC(=O)[C@H](CO)NC(=O)[C@H](CCCNC(=N)N)NC(=O)[C@@H]1CCCN1C(=O)[C@H](Cc1ccccc1)NC(=O)[C@H](CCCCN)NC(=O)[C@H](CO)NC(=O)[C@@H](N)CCCCN)C(=O)N[C@@H](CC(C)C)C(=O)O [3102.0022] (H-KSKFPRSML-OH)
7.51

Follow-up item: CC[C@H](C)[C@H](NC(=O)[C@H](CCCCN)NC(=O)[C@H](CO)NC(=O)[C@H](CCCCN)NC(=O)[C@@H](NC(=O)[C@@H](N)CCCNC(=N)N)[C@@H](C)O)C(=O)N[C@@H](CC(C)C)C(=O)N[C@@H](Cc1ccccc1)C(=O)NCC(=O)O [3102.1348] (H-RTKSKILFG-OH)
8.00

Likewise for CC[C@H](C)[C@H](NC(=O)[C@@H]1CCCN1C(=O)[C@H](CC(C)C)NC(=O)[C@H](CCCNC(=N)N)NC(=O)[C@@H](NC(=O)[C@@H](N)CCSC)[C@@H](C)O)C(=O)N[C@@H](CC(C)C)C(=O)N[C@@H](CC(C)C)C(=O)N[C@@H](CC(C)C)C(=O)O [3102.0104] (H-MTRLPILLL-OH) ?
9.19

Here is the next compound: CC(C)C[C@H](N)C(=O)N[C@H](C(=O)N[C@@H](CCCCN)C(=O)N[C@@H](CO)C(=O)N[C@@H](CO)C(=O)N[C@@H](Cc1ccccc1)C(=O)N[C@H](C(=O)N[C@@H](CCCCN)C(=O)N[C@@H](CCCCN)C(=O)O)C(C)C)C(C)C [3102.0185] (H-LVKSSFVKK-OH)
8.25
